target: T1, hPDL1(19-239)-TVMV-His (human, UniProt Q9NZQ7 19-239); experiment: HTRF competition, PD-1-Ig (20 nM) binding to human PD-L1-His (10 nM)
T1 construct: The construct name says 19-239, the running text says amino acids 18-239; Expressed in HEK293T cells; also called PD-L1-His; PD-L1-TVMV-His
T1 sequence (Q9NZQ7 other isoform, or with tags, fused parts or gaps limits assumed): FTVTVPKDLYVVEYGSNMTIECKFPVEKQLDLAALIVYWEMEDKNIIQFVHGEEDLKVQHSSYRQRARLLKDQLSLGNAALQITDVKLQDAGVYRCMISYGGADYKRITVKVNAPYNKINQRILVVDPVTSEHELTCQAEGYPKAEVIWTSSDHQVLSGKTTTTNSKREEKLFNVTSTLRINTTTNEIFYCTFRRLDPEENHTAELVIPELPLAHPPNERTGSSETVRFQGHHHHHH
Positions of bridges follow the written chain, without caps; N, C: chain ends. Non-standard residues stand in square brackets, D forms with d. NMeNle = CCCC[C@H](NC)C(=O)O; NMeA = CN[C@@H](C)C(=O)O; Sar = CNCC(=O)O
property: IC50 (nM)
Numeric only. Scale: nM

Recorded results for 4 binders are shown here.
FANPHLXWSWXXRCG (N-terminal chloroacetyl (ClAc) on residue 1 cyclized as thioether with Cys14; N-methyl-Ala (mAla) at 2; Dab (2,4-diaminobutyric acid, written X) at 7; N-methyl-norleucine (mNle, written X) at 11 and 12; C-terminal amide (NH2), macrocyclic peptide cyclized via the ClAc moiety with the downstream cysteine) [Compound No. 52] = 24
{CH2CO}-F[NMeA]NPHL[Sar]WSL[NMeNle][NMeNle]RCG-NH2 (thioether N-14; SMILES CCCC[C@H]1C(=O)N(C)[C@@H](CCCC)C(=O)N[C@@H](CCCNC(=N)N)C(=O)N[C@H](C(=O)NCC(N)=O)CSCC(=O)N[C@@H](Cc2ccccc2)C(=O)N(C)[C@@H](C)C(=O)N[C@@H](CC(N)=O)C(=O)N2CCC[C@H]2C(=O)N[C@@H](Cc2c[nH]cn2)C(=O)N[C@@H](CC(C)C)C(=O)N(C)CC(=O)N[C@@H](Cc2c[nH]c3ccccc23)C(=O)N[C@@H](CO)C(=O)N[C@@H](CC(C)C)C(=O)N1C, macrocyclic peptide cyclized via the ClAc moiety with the downstream cysteine) [Compound No. 63] = 3660
{CH2CO}-F[NMeA]NPHL[Sar]WAW[NMeNle][NMeNle]ACG-NH2 (thioether N-14; SMILES CCCC[C@H]1C(=O)N(C)[C@@H](CCCC)C(=O)N[C@@H](C)C(=O)N[C@H](C(=O)NCC(N)=O)CSCC(=O)N[C@@H](Cc2ccccc2)C(=O)N(C)[C@@H](C)C(=O)N[C@@H](CC(N)=O)C(=O)N2CCC[C@H]2C(=O)N[C@@H](Cc2c[nH]cn2)C(=O)N[C@@H](CC(C)C)C(=O)N(C)CC(=O)N[C@@H](Cc2c[nH]c3ccccc23)C(=O)N[C@@H](C)C(=O)N[C@@H](Cc2c[nH]c3ccccc23)C(=O)N1C, macrocyclic peptide cyclized via the ClAc moiety with the downstream cysteine) [Compound No. 60] = 43
{CH2CO}-F[NMeA]NPHD[Sar]WSW[NMeNle][NMeNle]RCG-NH2 (thioether N-14; SMILES CCCC[C@H]1C(=O)N(C)[C@@H](CCCC)C(=O)N[C@@H](CCCNC(=N)N)C(=O)N[C@H](C(=O)NCC(N)=O)CSCC(=O)N[C@@H](Cc2ccccc2)C(=O)N(C)[C@@H](C)C(=O)N[C@@H](CC(N)=O)C(=O)N2CCC[C@H]2C(=O)N[C@@H](Cc2c[nH]cn2)C(=O)N[C@@H](CC(=O)O)C(=O)N(C)CC(=O)N[C@@H](Cc2c[nH]c3ccccc23)C(=O)N[C@@H](CO)C(=O)N[C@@H](Cc2c[nH]c3ccccc23)C(=O)N1C, macrocyclic peptide cyclized via the ClAc moiety with the downstream cysteine) [Compound No. 51] = 23

Q: Fill in: IC50 of {CH2CO}-F[NMeA]NPHL[Sar]WSI[NMeNle][NMeNle]RCG-NH2 (thioether N-14; SMILES CCCC[C@H]1C(=O)N(C)[C@@H](CCCC)C(=O)N[C@@H](CCCNC(=N)N)C(=O)N[C@H](C(=O)NCC(N)=O)CSCC(=O)N[C@@H](Cc2ccccc2)C(=O)N(C)[C@@H](C)C(=O)N[C@@H](CC(N)=O)C(=O)N2CCC[C@H]2C(=O)N[C@@H](Cc2c[nH]cn2)C(=O)N[C@@H](CC(C)C)C(=O)N(C)CC(=O)N[C@@H](Cc2c[nH]c3ccccc23)C(=O)N[C@@H](CO)C(=O)N[C@@H]([C@@H](C)CC)C(=O)N1C, macrocyclic peptide cyclized via the ClAc moiety with the downstream cysteine) [Compound No. 62] is ___
A: 475
